Where do the numbers come from? From the supplement of paper PMC6555819.

System: RARa homodimer (NR concentration 270 nM)
Assay: PBM binding z-score (relative to random genomic background probes); higher = stronger binding; sequences stand for … in GC…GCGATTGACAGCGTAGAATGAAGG
PBM binding z-score: recorded values
Answer with the value's number alone.

primary-sequence	PBM binding z-score
GATACAGGTTCAAGGCCAGAGTACGCGTATTGAT	0.647
CATACAGGGTCTGCTAGGCCAGAGTAGGGACGGC	0.212
CCTACAGGGCCATCAGGTCATTGATATCAACGTT	0.0859
ATCTCTAGGTAAAGATAGTCCAGTGAATGCAAAT	0.93
CGTCCAAGGTCAGAGAGGTCAGAGAATGCCGAGT	1.75

Ask | Reported PBM binding z-score for RARa homodimer (NR concentration 270 nM), given `GCTGCTAGGTCAGGTTGGTCAGCAAACGGGTACG` ?
Reply | -0.687

Ask | Enter reported PBM binding z-score observed with RARa homodimer (NR concentration 270 nM) for `TCTGCTCGGTCAACGATGGTCAGCTAATCTGCTA`
Reply | -0.906

Ask | Write down the reported PBM binding z-score of `CAGTCTAGGTCAGGGCCAGTATAGGAGGAACGTT` , test system: RARa homodimer (NR concentration 270 nM).
Reply | 0.439

Ask | Query PBM binding z-score on RARa homodimer (NR concentration 270 nM) for `TCGAGTAGGTTAGTAGGGGCATTCAGCCAACATA`
Reply | 0.25

Ask | Form field - read-out: PBM binding z-score; system: RARa homodimer (NR concentration 270 nM); submitted item: `CCGACTGGGGCCTAAGGTTACCATAAGCCAGCCC`
Reply | 0.205

Ask | Query for RARa homodimer (NR concentration 270 nM): what PBM binding z-score does the record show for `AGAATGAGGTTAAGAGCAGGGAAACAGAATACAT` ?
Reply | -0.0125

Ask | What PBM binding z-score appears in the records for this sequence with RARa homodimer (NR concentration 270 nM)? `TGAATGTGGTTATAAGATCAGGGAACGTTGCAAA`
Reply | 1.15

---

Tested on: LXRb:RXRa (NR concentration 270 nM, RXRa partner concentration 90 nM)
Experiment: PBM binding z-score (relative to random genomic background probes); higher = stronger binding; sequences stand for … in GC…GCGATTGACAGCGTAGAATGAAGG
Here, each record is paired with measured PBM binding z-score data.
Reply briefly: the number, and no unit.

Ask | I have this sequence here, `CATACAGGGTCAGCTAGACCAGAGTAGGGACGGC` , and I need its recorded PBM binding z-score.
Reply | 2.14

Ask | Any idea what its PBM binding z-score is? The sequence is `TCTGCTAGGTCCACGATGGTCAGCTAATCTGCTA`
Reply | -0.79

Ask | Given the sequence `TCGAGTAGGTTAGTGGGGGCATTCAGCCAACATA` , what is its reported PBM binding z-score?
Reply | 3.73

Ask | Item `CCTACTGGGCCATTAGGTCATTGATATCAACGTT` has what recorded PBM binding z-score?
Reply | 1.24

Ask | Using the record for `CCGACTGGGGCAAAGGTTACCGTACTCAGTACGA` , report its PBM binding z-score.
Reply | 1.95

Ask | Quick check: PBM binding z-score of `AGTCAAAGTTCAGGACGAGGTAACGTGAAGCACG` ?
Reply | 1.68

---

Consider the following sequences and their measured PBM binding z-score readings.
System: PPARg homodimer (NR concentration 180 nM)
Test: PBM binding z-score (relative to random genomic background probes); higher = stronger binding; sequences stand for … in GC…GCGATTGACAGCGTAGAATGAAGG
// return just the number, without any unit appended

primary-sequence	subject-of-test	PBM binding z-score
TCATATAGGTAAATGTTAGGTGAAAGTCCGATCT	PPARg homodimer (NR concentration 180 nM)	1.66
CGAACTACGTCAAGGACAGTGAATCTCCGCACGC	PPARg homodimer (NR concentration 180 nM)	-0.76
AGCACGAGGGCACGCTGAGTTGATAGCAGAGTAG	PPARg homodimer (NR concentration 180 nM)	0.0355
CCTCGGAGGACAGCAGGTCAGAGCTGTCCGCTTT	PPARg homodimer (NR concentration 180 nM)	0.113
GCTAGCAGGCCAATTGGGTCACTCAATGACGGGC	PPARg homodimer (NR concentration 180 nM)	-0.0833
GGAACGAGGGCAAGTTGACAGCAGAGTTTGATGG	PPARg homodimer (NR concentration 180 nM)	0.481

Ask | Query: PBM binding z-score; subject: `TCGAGTAGGTTAGGGGAATTCAGAATGGCGTCGA`
Reply | 0.866

Ask | Dear colleague, I am looking for the recorded PBM binding z-score of the following sequence: `ATATATAGGTTAAGGGTCATTCAGGTTGGTTCGC`
Reply | 4.36

Ask | I'd like to know its PBM binding z-score. The sequence in question is `CGTCCAAGGTCAGCAGGGCAGTGAAAGCGACGTG`
Reply | 1.69

---

Entries and their PBM binding z-score values follow.
Test system: PPARg:RXRa DBDmut IVT, anti-RXR (DBD mutation: RXRa K156A/R161A, NR concentration 270 nM, RXRa partner concentration 90 nM)
Assay: PBM binding z-score (relative to random genomic background probes); higher = stronger binding; sequences stand for … in GC…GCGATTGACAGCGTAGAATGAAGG
Could you respond with only the numeric value?

Below: 5 sequences and their reported PBM binding z-score.
primary-sequence	PBM binding z-score
ACTTACGGGTGAACGAGGTTATAGCACGCGTATA	2.06
TTACCATGGTGAAGGTCGTTGATCCCTCTGTAGA	-0.0288
CGTCAAAGTTCAACTAAGGCAACGTAAAGCACGC	0.00616
ATCTCTAGGTAAAGATAGTTCAGTGATTGCAAAT	2.16
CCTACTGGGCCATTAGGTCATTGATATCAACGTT	5.31

Ask | Given the sequence `ACTATTAGTTGAAACGAGGGCAACCGATAGGTTG` , what is its reported PBM binding z-score?
Reply | 0.662

---

System: PPARg:RXRa 90nM:30nM, anti-RXR (NR concentration 90 nM, RXRa partner concentration 30 nM)
Assay: PBM binding z-score (relative to random genomic background probes); higher = stronger binding; sequences stand for … in GC…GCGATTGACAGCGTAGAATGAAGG
Measured PBM binding z-score by item

primary-sequence	PBM binding z-score
CAGCCTATGTCAGGGCCAGTATAGGAGGAACGTT	-0.506
AGCATGAGGTTAAGATCAGGGAAACAGAATACAT	0.819
TCGAGTAGGTTAGTCGGGGCAGTCAGCCAACATA	0.955
CAAACCAGGTCAAGGTCAAAGTCGGTTTGTGCCA	6.61
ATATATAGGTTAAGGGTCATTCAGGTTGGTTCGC	11.7
CGAACGAGGGCATGTGTTGATAGCAAATGCCGAT	0.632
CCTATTAGTTGACAATAAGGGCAACCGAAGCTCG	0.0255
CCTACTGGGCCATCAGCTCATTGATATCAACGTT	0.098
TCTCGGAGGACAGGAAGGTCAGAGCTTTCCAGAG	1.78
CCTTACGGGTCACTGACACGTTATAGCATTTGGA	3.25

Now take the following sequence into account.
Ask | So what's the measured PBM binding z-score for this one? `CCTGTTAGGTCAATGGTCAGCTAAAGCAGCTCGC`
Reply | 3.91

---

Tested on: RARb:RXRa (NR concentration 270 nM, RXRa partner concentration 90 nM)
Assay: PBM binding z-score (relative to random genomic background probes); higher = stronger binding; sequences stand for … in GC…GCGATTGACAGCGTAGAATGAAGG
Given measured PBM binding z-score, output Condition met if it is greater than or equal to 3 and Condition not met if not.

primary-sequence	group
GCTTACGGGTCAAAGGTTATAGCCTGAATAGAAT	Condition met

Ask | Tell me whether PBM binding z-score is at least 3 here: `ACTTACGGGTCAACGAGGCTATAGCACGCGTATA`
Reply | Condition met

Ask | Assess whether reported PBM binding z-score for `GATACAGGGTCAGCTAGAGGCCAGGGTATGGAAA` sits at 3 or higher.
Reply | Condition met

---

Tested on: PPARg:RXRa 90nM:30nM, anti-RXR (NR concentration 90 nM, RXRa partner concentration 30 nM)
Test: PBM binding z-score (relative to random genomic background probes); higher = stronger binding; sequences stand for … in GC…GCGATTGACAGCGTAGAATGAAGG
reported-property: PBM binding z-score
Reply with just the number.

Ask | Please look up its PBM binding z-score: `CCTACTGGGCCAAAAAGGTCATTGGTGCCGATAA`
Reply | 3.34

Ask | Which PBM binding z-score value is on record for `CGTAGTTGGTCAGGAGGTCACACACCGGATATGA` ?
Reply | 3.36

Ask | Give the measured PBM binding z-score of `TCATATAGGTATTACAGGTGAAAGTCGGCATCTA` .
Reply | 3.27
